Reference source for all entries: patent US20220267736A1

system: human iPS cells (TkDN4-M); test: Cell aggregate size distribution (widest portion) from micrographs during suspension culture; assay type: cell-based; details: Day 1; size range 260− μm; cytochalasin D 20 nM, jasplakinolide 20 nM, demecolcine 10 ng/mL, DMSO 1%
MEASURE_NAME: Percentage of cell aggregates by size

Consider the following illustrative entries.
COMPOUND: CN[C@H]1CCc2cc(OC)c(OC)c(OC)c2-c2ccc(OC)c(=O)cc21
SYSTEM_NAME: human iPS cells (TkDN4-M)
Percentage of cell aggregates by size: 1.1%
--
COMPOUND: C/C1=C\[C@H](C)C[C@H](C)OC(=O)C[C@H](c2ccc(O)cc2)NC(=O)[C@@H](Cc2c(Br)[nH]c3ccccc23)N(C)C(=O)[C@H](C)NC(=O)[C@@H](C)C1 [jasplakinolide]
SYSTEM_NAME: human iPS cells (TkDN4-M)
Percentage of cell aggregates by size: 0.5%
--
COMPOUND: C[S+](C)[O-] [DMSO, dimethylsulfoxide]
SYSTEM_NAME: human iPS cells (TkDN4-M)
Percentage of cell aggregates by size: 0.5%

Now consider a different compound.
Query string: Could you tell me which Percentage of cell aggregates by size is on file for `C=C1[C@@H](C)[C@H]2[C@H](Cc3ccccc3)NC(=O)[C@]23[C@H](OC(C)=O)/C=C/[C@@](C)(O)C(=O)[C@@H](C)C/C=C/[C@H]3[C@@H]1O` ?
Result string: 0.0%

###

system: human iPS cells (TkDN4-M); test: Cell aggregate size distribution (widest portion) from micrographs during suspension culture; type: cell-based; conditions: Day 1; size range 140− μm; cytochalasin D 20 nM, jasplakinolide 20 nM, demecolcine 10 ng/mL, DMSO 1%
MEASURE_NAME: Percentage of cell aggregates by size
Answer format reminder: number followed by unit.

Consider the following illustrative entries.
MOLECULE: C[S+](C)[O-] [DMSO, dimethylsulfoxide]
SYSTEM_NAME: human iPS cells (TkDN4-M)
RESULT: 28.1%

MOLECULE: C/C1=C\[C@H](C)C[C@H](C)OC(=O)C[C@H](c2ccc(O)cc2)NC(=O)[C@@H](Cc2c(Br)[nH]c3ccccc23)N(C)C(=O)[C@H](C)NC(=O)[C@@H](C)C1 [jasplakinolide]
SYSTEM_NAME: human iPS cells (TkDN4-M)
RESULT: 25.2%

Query string: Hello, I am looking for reported Percentage of cell aggregates by size with human iPS cells (TkDN4-M) for `CN[C@H]1CCc2cc(OC)c(OC)c(OC)c2-c2ccc(OC)c(=O)cc21` . Could you help?
Result string: 8.8%

Query string: Hello, I am looking for reported Percentage of cell aggregates by size with human iPS cells (TkDN4-M) for `C=C1[C@@H](C)[C@H]2[C@H](Cc3ccccc3)NC(=O)[C@]23[C@H](OC(C)=O)/C=C/[C@@](C)(O)C(=O)[C@@H](C)C/C=C/[C@H]3[C@@H]1O` . Could you help?
Result string: 26.2%

###

Catalogue of Number of cell aggregates by size values
tested on: human iPS cells (TkDN4-M); experiment: Cell aggregate size distribution (widest portion) from micrographs during suspension culture; assay type: cell-based; conditions: Day 1; size range 100− μm; cytochalasin D 20 nM, jasplakinolide 20 nM, demecolcine 10 ng/mL, DMSO 1%
Please respond with just the number, no unit label.

Consider the following illustrative entries.
COMPOUND: CN[C@H]1CCc2cc(OC)c(OC)c(OC)c2-c2ccc(OC)c(=O)cc21
Number of cell aggregates by size: 0
--
COMPOUND: C[S+](C)[O-] [DMSO, dimethylsulfoxide]
Number of cell aggregates by size: 2

Query string: Could you tell me which Number of cell aggregates by size is on file for C/C1=C\[C@H](C)C[C@H](C)OC(=O)C[C@H](c2ccc(O)cc2)NC(=O)[C@@H](Cc2c(Br)[nH]c3ccccc23)N(C)C(=O)[C@H](C)NC(=O)[C@@H](C)C1 [jasplakinolide] ?
Result string: 8

Query string: Could you tell me which Number of cell aggregates by size is on file for `C=C1[C@@H](C)[C@H]2[C@H](Cc3ccccc3)NC(=O)[C@]23[C@H](OC(C)=O)/C=C/[C@@](C)(O)C(=O)[C@@H](C)C/C=C/[C@H]3[C@@H]1O` ?
Result string: 26

###

system: human iPS cells (TkDN4-M); experiment: Cell aggregate size distribution (widest portion) from micrographs during suspension culture; assay type: cell-based; settings: Day 1; size range 160− μm; cytochalasin D 20 nM, jasplakinolide 20 nM, demecolcine 10 ng/mL, DMSO 1%
Catalogue of Number of cell aggregates by size values
Please respond with just the number, no unit label.

COMPOUND: C=C1[C@@H](C)[C@H]2[C@H](Cc3ccccc3)NC(=O)[C@]23[C@H](OC(C)=O)/C=C/[C@@](C)(O)C(=O)[C@@H](C)C/C=C/[C@H]3[C@@H]1O [cytochalasin D]
Number of cell aggregates by size: 40
//
COMPOUND: C[S+](C)[O-] [DMSO, dimethylsulfoxide]
Number of cell aggregates by size: 56
//
COMPOUND: C/C1=C\[C@H](C)C[C@H](C)OC(=O)C[C@H](c2ccc(O)cc2)NC(=O)[C@@H](Cc2c(Br)[nH]c3ccccc23)N(C)C(=O)[C@H](C)NC(=O)[C@@H](C)C1 [jasplakinolide]
Number of cell aggregates by size: 66

Now consider a different compound.
Query string: Hello, I am looking for reported Number of cell aggregates by size with human iPS cells (TkDN4-M) for CN[C@H]1CCc2cc(OC)c(OC)c(OC)c2-c2ccc(OC)c(=O)cc21 [demecolcine] . Could you help?
Result string: 37

###

system: human iPS cells (TkDN4-M); assay: Cell aggregate size distribution (widest portion) from micrographs during suspension culture; format: cell-based; settings: Day 1; size range 60− μm; cytochalasin D 20 nM, jasplakinolide 20 nM, demecolcine 10 ng/mL, DMSO 1%
MEASURE_NAME: Number of cell aggregates by size

MOLECULE: CN[C@H]1CCc2cc(OC)c(OC)c(OC)c2-c2ccc(OC)c(=O)cc21
Number of cell aggregates by size: 7

Query string: Could you tell me which Number of cell aggregates by size is on file for C[S+](C)[O-] [DMSO, dimethylsulfoxide] ?
Result string: 3

Query string: Could you tell me which Number of cell aggregates by size is on file for C/C1=C\[C@H](C)C[C@H](C)OC(=O)C[C@H](c2ccc(O)cc2)NC(=O)[C@@H](Cc2c(Br)[nH]c3ccccc23)N(C)C(=O)[C@H](C)NC(=O)[C@@H](C)C1 [jasplakinolide] ?
Result string: 4

Query string: Could you tell me which Number of cell aggregates by size is on file for `C=C1[C@@H](C)[C@H]2[C@H](Cc3ccccc3)NC(=O)[C@]23[C@H](OC(C)=O)/C=C/[C@@](C)(O)C(=O)[C@@H](C)C/C=C/[C@H]3[C@@H]1O` ?
Result string: 20

###

tested on: human iPS cells (TkDN4-M); experiment: Cell aggregate size distribution (widest portion) from micrographs during suspension culture; type: cell-based; settings: Day 1; size range 180− μm; cytochalasin D 20 nM, jasplakinolide 20 nM, demecolcine 10 ng/mL, DMSO 1%
Catalogue of Percentage of cell aggregates by size values
Response body: numeric value in %, unit text excluded.

Consider the following illustrative entries.
COMPOUND: C[S+](C)[O-] [DMSO, dimethylsulfoxide]
Percentage of cell aggregates by size / %: 16.6
--
COMPOUND: C=C1[C@@H](C)[C@H]2[C@H](Cc3ccccc3)NC(=O)[C@]23[C@H](OC(C)=O)/C=C/[C@@](C)(O)C(=O)[C@@H](C)C/C=C/[C@H]3[C@@H]1O [cytochalasin D]
Percentage of cell aggregates by size / %: 4.0
--
COMPOUND: C/C1=C\[C@H](C)C[C@H](C)OC(=O)C[C@H](c2ccc(O)cc2)NC(=O)[C@@H](Cc2c(Br)[nH]c3ccccc23)N(C)C(=O)[C@H](C)NC(=O)[C@@H](C)C1 [jasplakinolide]
Percentage of cell aggregates by size / %: 14.6

Query string: Hello, I am looking for reported Percentage of cell aggregates by size with human iPS cells (TkDN4-M) for CN[C@H]1CCc2cc(OC)c(OC)c(OC)c2-c2ccc(OC)c(=O)cc21 [demecolcine] . Could you help?
Result string: 24.7

###

Catalogue of Number of cell aggregates by size values
Tested on: human iPS cells (TkDN4-M)
Assay: Cell aggregate size distribution (widest portion) from micrographs during suspension culture
Assay type: cell-based
Settings: Day 1; size range 120− μm; cytochalasin D 20 nM, jasplakinolide 20 nM, demecolcine 10 ng/mL, DMSO 1%
Experimental: Cell suspensions were prepared in the same manner as in Example 2, and separately, the concentrations of the suppressors of cell aggregation were adjusted so that the final concentration of demecolcine (same as above) was 10 mg/mL (26.9 mM), the final concentration of cytochalasin D (same as above) was 0.51 mg/mL (1 mM), the concentration of DMSO (the same as above) was the stock concentration, or the final concentration of jasplakinolide (Cayman, 11705) was 0.14 mg/mL (0.2 mM). […]

COMPOUND: CN[C@H]1CCc2cc(OC)c(OC)c(OC)c2-c2ccc(OC)c(=O)cc21 [demecolcine]
Number of cell aggregates by size: 2

Query string: Could you tell me which Number of cell aggregates by size is on file for C/C1=C\[C@H](C)C[C@H](C)OC(=O)C[C@H](c2ccc(O)cc2)NC(=O)[C@@H](Cc2c(Br)[nH]c3ccccc23)N(C)C(=O)[C@H](C)NC(=O)[C@@H](C)C1 [jasplakinolide] ?
Result string: 23

Query string: Could you tell me which Number of cell aggregates by size is on file for C=C1[C@@H](C)[C@H]2[C@H](Cc3ccccc3)NC(=O)[C@]23[C@H](OC(C)=O)/C=C/[C@@](C)(O)C(=O)[C@@H](C)C/C=C/[C@H]3[C@@H]1O [cytochalasin D] ?
Result string: 60

Query string: Could you tell me which Number of cell aggregates by size is on file for C[S+](C)[O-] [DMSO, dimethylsulfoxide] ?
Result string: 24
